- Tested on: U-251
- method: NCI tumour cell line growth inhibition, 48 h
Calls of active or inactive are those of the source. Rule as the data show it: active = GI50 up to about 1.1 µM and inactive = higher.
observation-type: GI50

Give measured GI50 for NC(=O)c1nnsc1NN=O (U-251).
> 100 µM (inactive)

Give measured GI50 for COc1cc2c3c(c4cc(OC)c(OC)cc4c2cc1OC)[C@H](O)[C@@H]1CCCN1C3 (U-251).
< 0.0245 µM (active)

Give measured GI50 for O/N=C1\CCc2nonc2\C1=N/Nc1ccccc1 (U-251).
> 100 µM (inactive)

Give measured GI50 for CCOc1ccc(Nc2nc(N)nc(N)c2N)cc1 (U-251).
24.1 µM (inactive)

Give measured GI50 for CC1Nc2ccccc2NC1C=C(C#N)C#N (centres undefined) (U-251).
16.1 µM (inactive)

Give measured GI50 for Cc1oc2c(c1C)S(=O)(=O)C(C#N)=CN2 (U-251).
> 100 µM (inactive)

Give measured GI50 for CCOC(=O)Cc1ccc(Nc2nc3cc(F)c(F)cc3nc2C(=O)OCC)cc1 (U-251).
28.9 µM (inactive)

Give measured GI50 for Nc1ccc(C(=O)N/C(=C\C=C\c2ccco2)c2nc3c4c(ccc3[nH]2)C(=O)c2ccccc2C4=O)cc1 (U-251).
31.3 µM (inactive)

Give measured GI50 for CC#CC(O)(C(=O)OC1CCCN(C)C1)C1=CC=CCC1 (centres undefined) (U-251).
> 100 µM (inactive)

Give measured GI50 for CCOC(=O)C1Cc2c(cc3c4c(cccc24)N(C(C)=O)C3)N(C)C1 (centres undefined) (U-251).
4.93 µM (inactive)

Give measured GI50 for CCOC(=O)C(NC(=O)CC(C)C)(N1CCN(c2cc3c(cc2F)c(=O)c(C(=O)O)cn3C2CC2)CC1)C(F)(F)F (centres undefined) (U-251).
14.7 µM (inactive)

Give measured GI50 for CSc1nc(Cl)c2c(n1)Sc1nc3cc4c(cc3n1C2O)OCO4 (centres undefined) (U-251).
0.791 µM (active)

Give measured GI50 for NNC(=O)C(=O)N/N=C(\CCC(=O)Nc1ccc(Cl)cc1)Cc1nc2ccccc2s1 (U-251).
18.8 µM (inactive)

Give measured GI50 for Cc1ncc([N+](=O)[O-])n1CCNC(=O)CCC(=O)NCCCn1ccnc1[N+](=O)[O-] (U-251).
> 100 µM (inactive)

Give measured GI50 for COc1cccc2c1C(=O)c1c(O)c3c(c(O)c1C2=O)C[C@@](O)(C(C)=O)C[C@@H]3OC1CC(O)C(O)C(C)O1 (some centres undefined) (U-251).
0.359 µM (active)

Give measured GI50 for Cc1cc(NS(=O)(=O)c2ccc(/N=N/c3c(O)c(C(=O)O)cc4ccccc34)cc2)nc(C)n1 (U-251).
> 100 µM (inactive)

Give measured GI50 for CN(C)CCNC(=O)c1c2ccccc2cc2ccccc12 (U-251).
41.3 µM (inactive)

Give measured GI50 for CC1(C)C(=O)N=C(N)N1C(=O)OCc1ccccc1 (U-251).
> 100 µM (inactive)

Give measured GI50 for O=C1C2=Cc3ccccc3CCN2c2ccccc21 (U-251).
> 31.6 µM (inactive)

Give measured GI50 for CC1CCC23COC(=O)C2C(O)CCC3C1(C)CC(O)c1ccoc1 (centres undefined) (U-251).
> 100 µM (inactive)

Give measured GI50 for Cc1c2c(OCCCCN3CCN(c4ncccn4)CC3)nn(C)c(=O)c2c(C)n1-c1ccccc1 (U-251).
18.1 µM (inactive)

Give measured GI50 for Cc1ccc(/C=N/Nc2cc(C)c3ccccc3n2)s1 (U-251).
16.8 µM (inactive)

Give measured GI50 for CC(C)(C)c1ccc(C(O)(c2ccc(C(C)(C)C)cc2)c2ccc(C(C)(C)C)cc2)cc1 (U-251).
> 100 µM (inactive)

Give measured GI50 for COc1cc(C2Oc3cc(-c4oc5cc(O)cc(O)c5c(=O)c4O)ccc3OC2CO)ccc1O (centres undefined) [DEHYDROSILYLBIN] (U-251).
6.68 µM (inactive)

Give measured GI50 for C=CCCCN1C(=O)C2C3c4ccccc4C(C=O)(c4ccccc43)C2C1=O (centres undefined) (U-251).
11.2 µM (inactive)

Give measured GI50 for Cc1nc(=O)n2c(C)n[nH]c2c1C(=O)Nc1cc(Cl)cc(Cl)c1 (U-251).
21.1 µM (inactive)

Give measured GI50 for COc1cc(/C=C2\C[C@H]3[C@@H]4CC=C5C=C(N6CCCC6)CC[C@]5(C)[C@H]4CC[C@]3(C)C2=O)cc(OC)c1OC (U-251).
1.96 µM (inactive)

Give measured GI50 for COC(=O)/C=C/[C@H]1[C@H](C)N1S(=O)(=O)c1ccc(C)cc1 (some centres undefined) (U-251).
> 100 µM (inactive)

Give measured GI50 for O=[N+]([O-])C(/C=C(\Cl)[N+](=O)[O-])=C(Nc1ccccc1)Nc1ccccc1 (U-251).
14.3 µM (inactive)

Give measured GI50 for CC1C2CC(CC2=O)C1(C)C (centres undefined) (U-251).
> 100 µM (inactive)

Give measured GI50 for CC1=CC[C@H](C)C(C)(C)C1/C=C/C(C)=C/CC[C@@]1(CO)[C@H](CCCO)/C(=C(/C)C=O)CC[C@]1(C)O (some centres undefined) (U-251).
2.86 µM (inactive)

Give measured GI50 for Cc1ccccc1-n1c(C)nc2c1C(=O)c1ccccc1C2=O (U-251).
72.1 µM (inactive)

Give measured GI50 for C=C1C(=O)OC2/C=C(\C)C3OC3/C=C(/C(=O)OC)C(O)C(OC(=O)C3(C)OC3C)C12 (centres undefined) (U-251).
4.58 µM (inactive)

Give measured GI50 for Cc1cc(S(=O)(=O)Nc2nc3ccccc3c(=O)n2N)c(S)cc1Cl (U-251).
23.1 µM (inactive)

Give measured GI50 for C=C(C)[C@H]1CC[C@@]23O[C@@H]2[C@@H](C[C@@]2(C)CC(=O)[C@H](CC(=O)C1)O2)OC(=O)[C@@]12CC[C@H](C(=C)C)CC(=O)C[C@H]4O[C@](C)(CC4=O)C[C@@H](OC3=O)[C@@H]1O2 (U-251).
> 100 µM (inactive)

Give measured GI50 for C=C1CCC2C(C)(CO)C(O)CCC2(C)C1C/C=C1\C(=O)OCC1O (centres undefined) (U-251).
11.1 µM (inactive)

Give measured GI50 for O=[N+]([O-])c1ccc(NN/N=N/c2ccc(-c3nc4ccccc4[nH]3)cc2)c([N+](=O)[O-])c1 (U-251).
53.7 µM (inactive)

Give measured GI50 for Cc1ccc(N(C(=O)Nc2ccc(F)c(Cl)c2)C2=NCC(C)S2)cc1 (centres undefined) (U-251).
50.6 µM (inactive)

Give measured GI50 for CCCC(=O)N(C(=O)CCC)C1=C(Cl)C(=O)c2ccccc2C1=O (U-251).
4.08 µM (inactive)

Where do these numbers come from? They come from ChEMBL document CHEMBL1201862.
